- Tested on: RXRa homodimer (NR concentration 180 nM)
- Protocol Notes: PBM binding z-score (relative to random genomic background probes); higher = stronger binding; sequences stand for … in GC…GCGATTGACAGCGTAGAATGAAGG
Property Measured: PBM binding z-score
Please give the numeric answer without any surrounding text.

For orientation, consider the following solved cases.
# Sequence Record, PBM binding z-score
records = [
    ("CCTAGTTGGTCAGGTGGTCACACACCGGATATGA", 0.463),
    ("CGAACTAGGTCAAAGGACAGTGGAAGGCGACGTA", 2.94),
    ("CCTAGTTGGTCAAGGTCCCACACGCTATAGGTAC", 0.433),
    ("ATCGAAAGGTCGAAGGAGAGTATACCCACCCGAA", 3.75),
    ("CGAGCTAGGTCACCAGGACAGTGAAGAGGTTGGA", 2.97),
]

Lookup: Provide only the value of recorded PBM binding z-score for CGAACTAGGTCACCAGGAGAGTGAAGAGGTTGGA
Found: 3.02

Lookup: Provide only the value of recorded PBM binding z-score for AATACAGGGTGATCGTAGGCCAGAGTACGCACAG
Found: 0.57

----------
- Test system: LXRa:RXRa (NR concentration 270 nM, RXRa partner concentration 90 nM)
- Protocol Notes: PBM binding z-score (relative to random genomic background probes); higher = stronger binding; sequences stand for … in GC…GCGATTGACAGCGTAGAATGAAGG
Classify by measured PBM binding z-score: Yes if it is equal to or exceeds 4, No if it is smaller.

Before answering, review these 5 worked examples.
# Sequence Record, Target Or System, Label
measured = [
    ("CGAACTAGGTCAAAGGACAGCGAAAGGCGACGTA", "LXRa:RXRa (NR concentration 270 nM, RXRa partner concentration 90 nM)", "No"),
    ("CAAACTAGGTCACAGGGGTCAAAGTCCGTGCGTA", "LXRa:RXRa (NR concentration 270 nM, RXRa partner concentration 90 nM)", "Yes"),
    ("CTTTACGGGTCAAGGTTATAGCACGGGTGGTACG", "LXRa:RXRa (NR concentration 270 nM, RXRa partner concentration 90 nM)", "Yes"),
    ("CCTCCAAGGTCATAGGAGGTCAGTGAAGACAGAT", "LXRa:RXRa (NR concentration 270 nM, RXRa partner concentration 90 nM)", "Yes"),
    ("ACTCGGAGGACAGAGGTCAGAGCTACGCCAGTGA", "LXRa:RXRa (NR concentration 270 nM, RXRa partner concentration 90 nM)", "No"),
]

Lookup: Check the entry AGTCAAAGGTCACTAGGTAACGTAAGATTCAGCT : does PBM binding z-score equal or exceed 4?
Found: Yes

Lookup: Check the entry CCGAGTAGATTACGAGGGGGCATTCAGTGCGAAT : does PBM binding z-score equal or exceed 4?
Found: No

Lookup: Check the entry CCTTGCGGGTCACTGACAGGTTATAGCATTTGGA : does PBM binding z-score equal or exceed 4?
Found: No

Lookup: Check the entry CCTTACGGGCCACGAGGTTATAGCACGACGAGCG : does PBM binding z-score equal or exceed 4?
Found: No

Lookup: Check the entry CGAACTAGGACATCCAGGACAGTGAATACATTGA : does PBM binding z-score equal or exceed 4?
Found: No

Lookup: Check the entry TCAAGTAGGTTACGGGGGCATTCAGGGATGAAGA : does PBM binding z-score equal or exceed 4?
Found: No

Lookup: Check the entry TCGAGTAGGTTACGGGGGCACTCAGGGATGAAGA : does PBM binding z-score equal or exceed 4?
Found: No

Lookup: Check the entry TAGCCTAGGTCATTGTGCCAGTATAGTACGCATC : does PBM binding z-score equal or exceed 4?
Found: No

Lookup: Check the entry ATAAGTAGGTTAGGGTCATTCAGAAAGTAGGGAA : does PBM binding z-score equal or exceed 4?
Found: Yes

Lookup: Check the entry CAAACTAGGTCACGAGGTCAAAGTCCGCTTCCCG : does PBM binding z-score equal or exceed 4?
Found: Yes

Lookup: Check the entry ATCTCTAGGTTAAAGTTCAGTGAATCCCGAGGAT : does PBM binding z-score equal or exceed 4?
Found: No

Lookup: Check the entry CATACCGGGTCAGCTAGGCCAGAGTAGGGACGGC : does PBM binding z-score equal or exceed 4?
Found: No

meta.source: the supplement of paper PMC6555819
